Let's go through some AC50 measurements on Adenosine receptor A2a (Homo sapiens, UniProt P29274) together.
Sequence (P29274 whole entry): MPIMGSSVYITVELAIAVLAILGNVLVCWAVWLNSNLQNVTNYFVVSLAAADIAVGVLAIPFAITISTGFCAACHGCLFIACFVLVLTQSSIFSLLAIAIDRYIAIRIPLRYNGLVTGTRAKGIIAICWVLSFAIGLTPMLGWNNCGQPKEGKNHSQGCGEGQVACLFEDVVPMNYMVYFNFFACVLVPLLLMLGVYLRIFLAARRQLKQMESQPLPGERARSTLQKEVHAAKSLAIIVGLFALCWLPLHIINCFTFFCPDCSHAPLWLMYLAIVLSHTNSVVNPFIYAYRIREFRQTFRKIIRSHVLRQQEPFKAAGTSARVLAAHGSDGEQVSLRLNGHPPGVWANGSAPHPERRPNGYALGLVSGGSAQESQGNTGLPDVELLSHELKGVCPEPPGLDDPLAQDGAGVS

MOLECULE: CN1c2ccccc2C(NCCCCCCC(=O)O)c2ccc(Cl)cc2S1(=O)=O (centres undefined)
AC50: > 30 µM

MOLECULE: CCCCCCNC(=O)n1cc(F)c(=O)[nH]c1=O
AC50: > 30 µM

MOLECULE: CC(C)N(CCCCOCC(=O)NS(C)(=O)=O)c1cnc(-c2ccccc2)c(-c2ccccc2)n1
AC50: > 30 µM

MOLECULE: COC(=O)[C@H](c1ccccc1Cl)N1CCc2sccc2C1
AC50: > 30 µM

MOLECULE: COc1cc2nccc(Oc3ccc(NC(=O)Nc4cc(C)on4)c(Cl)c3)c2cc1OC
AC50: > 3 µM

MOLECULE: Cc1cccc(N(C)C(=S)Oc2ccc3ccccc3c2)c1 [TOLNAFTATE]
AC50: > 10 µM

MOLECULE: Clc1ccc2c(c1)C(c1ccccc1)=NCc1nncn1-2
AC50: > 30 µM

MOLECULE: CO/N=C(\C(=O)N[C@@H]1C(=O)N2C(C(=O)O)=C(COC(N)=O)CS[C@H]12)c1ccco1
AC50: > 30 µM

MOLECULE: O=C(O)c1ccccc1OP(=O)(O)O
AC50: > 30 µM
